Where do the numbers come from? From patent US20250170141A1.

- ASSAY TARGET: human MRGPRX2 (Homo sapiens, UniProt Q96LB1)
- ASSAY PROTOCOL: MRGPRX2 activity: IP-One Gq HTRF assay in CHO cells, antagonism versus 0.3 uM Cortistatin-14
- CONDITIONS: versus 0.3 uM Cortistatin-14 agonist, CHO cells expressing human MRGPRX2, read-out: MRGPRX2 Antagonist Activity
pIC50: −log10 of the molar value.
PROPERTY LABEL: pIC50

Incoming: Name the recorded pIC50 of COc1ccc(Cc2cccc3c2NC(NCc2ccccc2F)=NS3(=O)=O)cc1 [Compound 6-15] , assay system human MRGPRX2 (Homo sapiens, UniProt Q96LB1).
Outgoing: 6.30 to 7.00

Incoming: Fill in: pIC50 on human MRGPRX2 (Homo sapiens, UniProt Q96LB1), entry O=S1(=O)N=C(NCc2ncccc2F)Nc2c1cc(F)c(Cl)c2Oc1ccccc1Cl [Compound 1-48]
Outgoing: > 7.00

Incoming: Report pIC50 under test system human MRGPRX2 (Homo sapiens, UniProt Q96LB1) for O=S1(=O)N=C(NCc2ncccc2F)Nc2c1ccc(F)c2Oc1cccc(F)c1 [Compound 2-8] .
Outgoing: 6.30 to 7.00

Incoming: State, for human MRGPRX2 (Homo sapiens, UniProt Q96LB1), measured pIC50 of the molecule listed here: O=S1(=O)N=C(NCc2cccc(F)c2)Nc2c(Cc3ccccc3Cl)cccc21 [Compound 12-22]
Outgoing: > 7.00

Incoming: Report value only: pIC50, human MRGPRX2 (Homo sapiens, UniProt Q96LB1), C[C@@H](c1ccccc1F)c1c(F)c(F)cc2c1NC(NCc1ncccc1F)=NS2(=O)=O [Compound 10-6A]
Outgoing: > 7.00

Incoming: Give the observed pIC50 of O=S1(=O)N=C(NCc2ncccc2F)Nc2c1ccc(F)c2Oc1ccc(F)cc1 [Compound 2-7] for human MRGPRX2 (Homo sapiens, UniProt Q96LB1).
Outgoing: 6.30 to 7.00

---

- ASSAY TARGET: human MRGPRX2 (Homo sapiens, UniProt Q96LB1)
- Sequence (Q96LB1 1-330): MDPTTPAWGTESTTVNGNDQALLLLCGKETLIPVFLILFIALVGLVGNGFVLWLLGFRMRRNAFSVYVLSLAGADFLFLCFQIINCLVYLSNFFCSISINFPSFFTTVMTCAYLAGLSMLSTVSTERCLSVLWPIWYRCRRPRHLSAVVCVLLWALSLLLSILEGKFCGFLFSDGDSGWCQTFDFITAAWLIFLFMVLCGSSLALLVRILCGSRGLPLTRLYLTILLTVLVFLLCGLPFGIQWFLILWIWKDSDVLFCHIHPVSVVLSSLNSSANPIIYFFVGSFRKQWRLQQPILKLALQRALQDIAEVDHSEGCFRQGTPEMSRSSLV
- ASSAY PROTOCOL: MRGPRX2 activity: IP-One Gq HTRF assay in CHO cells, antagonism versus 0.3 uM Cortistatin-14
- CONDITIONS: versus 0.3 uM Cortistatin-14 agonist, CHO cells expressing human MRGPRX2, read-out: MRGPRX2 Antagonist Activity
- Procedure: CHO cells stably transfected to express human MRGPRX2 were maintained in an incubator at 37° C. with 5% CO2 and grown in F12 (HAM) media with 10% fetal bovine serum (FBS), 1% Glutamax, 1% penicillin/streptomycin, 800 μg/mL Geneticin (G418), and 300 μg/mL Hygromycin B. Cells were plated in a 384-well assay plate at 20,000 cells per well in 12 μL of Opti-MEM and kept in an incubator overnight. […] The plate was read on a Molecular Devices SpectraMax iD5 plate reader. […]
pIC50: −log10 of the molar value.
PROPERTY LABEL: pIC50

Look over these answered cases.
{"MOLECULE": "O=S1(=O)N=C(NCc2cnccc2C(F)(F)F)Nc2c(Cc3ccccc3Cl)cccc21", "PROPERTY LABEL": "pIC50", "ENDPOINT RESULT": "> 7.00"}
{"MOLECULE": "O=S1(=O)N=C(NCc2ccccc2F)Nc2c(Cc3ccccc3F)cccc21", "PROPERTY LABEL": "pIC50", "ENDPOINT RESULT": "> 7.00"}
{"MOLECULE": "Cc1ccc(Cc2cccc3c2NC(NCc2ccccc2F)=NS3(=O)=O)cc1", "PROPERTY LABEL": "pIC50", "ENDPOINT RESULT": "6.30 to 7.00"}
{"MOLECULE": "N#Cc1cccc(Cc2cccc3c2NC(NCc2ccccc2F)=NS3(=O)=O)c1", "PROPERTY LABEL": "pIC50", "ENDPOINT RESULT": "> 7.00"}
{"MOLECULE": "Cc1cc(C(C)c2c(F)ccc3c2NC(NCc2cccc(F)c2)=NS3(=O)=O)ccn1 (stereo not drawn)", "PROPERTY LABEL": "pIC50", "ENDPOINT RESULT": "> 7.00"}

Incoming: Identify measured pIC50 corresponding to O=C(c1ccccc1Cl)c1c(F)ccc2c1NC(NCc1ncccc1F)=NS2(=O)=O
Outgoing: 6.30 to 7.00

Incoming: Tell us which pIC50 value is on record for O=S1(=O)N=C(NCc2ccccc2F)Nc2c(Cc3cccc(Cl)c3)cccc21
Outgoing: > 7.00

Incoming: Specify measured pIC50 for O=S1(=O)N=C(NCc2cccnc2F)Nc2c(Cc3ccccc3Cl)cccc21 .
Outgoing: > 7.00

Incoming: Return the recorded pIC50 value; entry: CC(c1ccccc1F)c1c(F)ccc2c1NC(NCc1cc(Cl)cc(Cl)c1)=NS2(=O)=O (stereo not drawn)
Outgoing: > 7.00

Incoming: Kindly indicate its recorded pIC50. Item: COc1ccccc1CNC1=NS(=O)(=O)c2ccc(F)c(C(C)c3ccccc3F)c2N1 (stereo not drawn)
Outgoing: > 7.00
